ASSAY TARGET: Human PD-L1/PD-1 (Homo sapiens)
Construct: TVMV protease cleavage site (C); made in house; host or cells: HEK293T cells
Sequence (Q9NZQ7 with tags, fused parts or gaps): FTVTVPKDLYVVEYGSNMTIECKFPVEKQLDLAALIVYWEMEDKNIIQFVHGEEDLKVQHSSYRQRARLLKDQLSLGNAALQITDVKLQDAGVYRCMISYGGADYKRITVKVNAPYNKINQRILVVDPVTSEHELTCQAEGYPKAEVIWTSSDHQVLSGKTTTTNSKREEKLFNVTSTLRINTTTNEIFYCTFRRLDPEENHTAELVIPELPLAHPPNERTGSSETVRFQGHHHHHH
EXPERIMENT DESCRIPTION: HTRF Human PD-L1/PD-1 binding assay (PD-1-Ig/PD-L1-His)
CONDITION CONTEXT: PD-L1-His 10 nM, PD-1-Ig 20 nM; read-out: HTRF Human PD-L1/PD-1 Binding Assay IC50
Description: Methods for Testing the Ability of Macrocyclic Peptides to Compete for the Binding of PD-1 to PD-L1 Using Homogenous Time-Resolved Fluorescence (HTRF) Binding Assays The ability of the macrocyclic peptides of the present disclosure to bind to PD-L1 was investigated using a PD-1/PD-L1 Homogenous Time-Resolved Fluorescence (HTRF) binding assay. Homogenous Time-Resolved Fluorescence (HTRF) Assays of Binding of Soluble PD-1 to Soluble PD-L1. […]
Where a SMILES comes first, the peptide text is derived from it. Bridges are numbered along the chain shown (N, C = ends). [ ]: non-standard residue; d: D form. NMePhe(4-F) = CN[C@@H](Cc1ccc(F)cc1)C(=O)O; NMeF = CN[C@@H](Cc1ccccc1)C(=O)O; dPip = O=C(O)[C@H]1CCCCN1; NMeA = CN[C@@H](C)C(=O)O
OUTCOME MEASURE: pIC50
Please note pIC50 is a logarithmic value: minus log10 of concentration in mol/L. Answer with that number alone.

Consider the molecule CC(C)C[C@@H]1NC(=O)[C@H](Cc2ccc(O)cc2)NC(=O)[C@H](Cc2c[nH]c3ccccc23)NC(=O)[C@H]2CCCCN2C(=O)[C@H](Cc2ccc(O)cc2)NC(=O)[C@H](Cc2ccccc2)N(C)C(=O)[C@H](C(C)C)NC(=O)[C@H](CC(=O)O)NC(=O)[C@H]2CCCN2C(=O)[C@H](C)N(C)C(=O)[C@H](Cc2ccc(F)cc2)N(C)C(=O)[C@H](Cc2ccccc2)NC(=O)CSC[C@@H](C(=O)NCC(N)=O)NC1=O [Example 10543] ({CH2CO}-F[NMePhe(4-F)][NMeA][dP]DV[NMeF]Y[dPip]WYLCG-NH2; thioether N-13) . State its measured pIC50.
8.00
